target: M-phase inducer phosphatase 2 (Homo sapiens, UniProt P30305); assay: Inhibition of CDC25B; conditions: read-out: IC50
Sequence (P30305 whole entry): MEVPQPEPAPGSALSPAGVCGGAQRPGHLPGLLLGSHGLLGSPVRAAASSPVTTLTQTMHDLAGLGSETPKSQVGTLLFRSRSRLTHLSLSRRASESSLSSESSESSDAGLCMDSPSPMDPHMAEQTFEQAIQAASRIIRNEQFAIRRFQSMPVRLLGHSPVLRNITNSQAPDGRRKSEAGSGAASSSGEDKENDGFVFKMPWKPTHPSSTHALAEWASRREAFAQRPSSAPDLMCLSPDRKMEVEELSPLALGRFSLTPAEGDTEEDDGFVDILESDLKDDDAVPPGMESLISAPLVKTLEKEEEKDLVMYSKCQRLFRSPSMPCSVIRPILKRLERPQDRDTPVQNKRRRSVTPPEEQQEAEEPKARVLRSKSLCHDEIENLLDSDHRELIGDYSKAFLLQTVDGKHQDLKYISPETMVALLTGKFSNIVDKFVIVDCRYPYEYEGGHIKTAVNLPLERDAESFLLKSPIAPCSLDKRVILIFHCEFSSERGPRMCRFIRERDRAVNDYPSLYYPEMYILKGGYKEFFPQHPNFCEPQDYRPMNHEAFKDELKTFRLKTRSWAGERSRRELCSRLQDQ
ENDPOINT NAME: IC50 (nM)
State just the number; it will be interpreted in nM.

These solved cases illustrate the format of a correct answer.
STRUCTURE: CCCCCCCCCCCCCCCCCC(=O)c1n[nH]c2c1C(=O)N(c1ccc(Br)cc1)C2=O
ENDPOINT NAME: IC50
NUMERIC RESULT: 960
//
STRUCTURE: CCCCCCCCCCCCCCCCCC(=O)c1cc(C(=O)Nc2ccsc2C(=O)O)[nH]n1
ENDPOINT NAME: IC50
NUMERIC RESULT: 120
//
STRUCTURE: CCCCCCCCCCCCCCCCCC(=O)c1n[nH]c2c1C(=O)N(c1cccc(C)c1)C2=O
ENDPOINT NAME: IC50
NUMERIC RESULT: 2600
//
STRUCTURE: CCCCCCCCCCCCCCCCCC(=O)c1n[nH]c2c1C(=O)N(c1ccccc1C(F)(F)F)C2=O
ENDPOINT NAME: IC50
NUMERIC RESULT: 320
//
STRUCTURE: CCCCCCCCCCCCCCCCCC(=O)c1n[nH]c2c1C(=O)N(c1ccccc1F)C2=O
ENDPOINT NAME: IC50
NUMERIC RESULT: 450

Result for CCCCCCCCCCCCCCCCCC(=O)c1n[nH]c2c1C(=O)N(c1cccc(F)c1)C2=O , tested on M-phase inducer phosphatase 2 (Homo sapiens, UniProt P30305), IC50: 1470

IC50 value, target or system M-phase inducer phosphatase 2 (Homo sapiens, UniProt P30305), for CCCCCCCCCCCCCC(=O)c1n[nH]c2c1C(=O)N(c1ccc([N+](=O)[O-])cc1)C2=O : 500

Considering CCCCCCCCCCCCCCCCCC(=O)c1n[nH]c2c1C(=O)N(c1ccc(F)cc1)C2=O , its IC50 with M-phase inducer phosphatase 2 (Homo sapiens, UniProt P30305) was recorded as 540

The compound CCCCCCCCCCCCCCCCCC(=O)c1n[nH]c2c1C(=O)N(C1CCCCC1)C2=O , when measured on M-phase inducer phosphatase 2 (Homo sapiens, UniProt P30305), yielded IC50 of 2920
